Here, each record is paired with measured fold binding to target pHLA over minipool of negative control pHLAs data.
- system: HLA-A*01:01_… (HLA-PEPTIDE target G10), recombinant soluble complex (human, UniProt P04439-2 25-297; P61769 21-119, enzymatically biotinylated (BirA) for screening and functional assays)
- assay.notes: scFv PPE ELISA

Solved entries (count: 2):
Inquiry: Data request, read-out fold binding to target pHLA over minipool of negative control pHLAs, for scFv R3G10-P1A07 (scFv, V domains shown) VH: EVQLLESGGGLVKPGGSLRLSCAASGFTFSSYWMSWVRQAPGKGLEWVSGISARSGRTYYADSVKGRFTISRDDSKNTLYLQMNSLKTEDTAVYYCARDQDTIFGVVITWFDPWGQGTLVTVSS VL: DIQMTQSPSSLSASVGDRVTITCRASQGISNYLAWYQQKPGKAPKLLIYAASSLQGGVPSRFSGSGSGTDFTLTISSLQPEDFATYYCQQYFTTPYTFGQGTKLEIK
Reply text: ≥ 3 fold

Inquiry: Data request, read-out fold binding to target pHLA over minipool of negative control pHLAs, for scFv R3G10-P4D10 (scFv, V domains shown) VH: QVQLVQSGAEVKKPGASVKVSCKASGYTFTGYYLHWVRQAPGQGLEWMGMIGPSDGSTSYAQKFQGRVTMTRDTSTSTVYMELSSLRSEDTAVYYCARDGDAFDIWGQGTMVTVSS VL: DIQMTQSPSSLSASVGDRVTITCRASQGISSWLAWYQQKPGKAPKLLIYDASNLETGVPSRFSGSGSGTDFTLTISSLQPEDFATYYCQQSYSTPLTFGGGTKVEIK
Reply text: ≥ 3 fold

Then this binder:
Inquiry: Data request, read-out fold binding to target pHLA over minipool of negative control pHLAs, for scFv R3G10-P1H08 (scFv, V domains shown) VH: QVQLVQSGAEVKKPGASVKVSCKASGVTFSTSAISWVRQAPGQGLEWMGWISPYNGNTDYAQMLQGRVTMTRDTSTSTVYMELSSLRSEDTAVYYCARDAHQYYDFWSGYYSGTYYYGMDVWGQGTTVTVSS VL: DIQMTQSPSSLSASVGDRVTITCRASQGISNYLAWYQQKPGKAPKLLIYSASNLQSGVPSRFSGSGSGTDFTLTISSLQPEDFATYYCQQAYSFPWTFGQGTKVEIK
Reply text: ≥ 3 fold
